Consider the following substances and their measured HSL mRNA readings.
system: HSL; experiment: HSL mRNA expression in adipocytes (real-time PCR); format: cell-based, human; conditions: differentiating adipocytes transfected with oligomeric compound; Table 75
In the oligonucleotide strings, read from the 5' end, every base follows the letter of its sugar. An asterisk marks phosphorothioate; unmarked linkages are phosphodiester. Other units and linkages are bracketed, terminal groups are in braces. A string of capitals states the bases alone. e = 2'-O-(2-methoxyethyl) (MOE); [5mC] = 5-methylcytosine

Known results for substances:
| substance | subject_of_test | property_label | test_value |
| --- | --- | --- | --- |
| 344340 (UGUCCGUGGUUCUACCCUGUGGUA; all 2'-MOE, all phosphorothioate, methylation of C and T or U not given here) [compound 344340] | HSL | HSL mRNA | 47 percentage of untreated control (UTC) |
| 346921 (AACAACCAGCUAAGACACUGCCA; all 2'-MOE, all phosphorothioate, methylation of C and T or U not given here) [compound 346921] | HSL | HSL mRNA | 49 percentage of untreated control (UTC) |
| 328102 (antisense eG*e[5mC]*e[5mC]*e[5mC]*e[5mC]*eA*eT*eT*eA*eA*eT*eA*eT*eT*eT*eT*eA*eA*e[5mC]*e[5mC]*eA) [compound 328102] | HSL | HSL mRNA | 99 percentage of untreated control (UTC) |
| 327950 (antisense eT*e[5mC]*eA*eG*eT*eT*eT*eT*eG*e[5mC]*eA*eT*eA*eG*eA*eT*eT*eT*eG*e[5mC]*eA*e[5mC]*eA) [compound 327950] | HSL | HSL mRNA | 94 percentage of untreated control (UTC) |

// next item, HSL mRNA requested
Need HSL mRNA, item 346688 (UAGUUGGCAAGUCUAGAACCA; all 2'-MOE, all phosphorothioate, methylation of C and T or U not given here) [compound 346688]
39 percentage of untreated control (UTC)
